Values were extracted from patent US20210030857A1.

Listed next: entries and their corresponding Kd.
# target: T1, cynomolgus monkey beta klotho protein (soluble, used in Biacore) (cynomolgus monkey (Macaca fascicularis), UniProt Q86Z14 53-996 (human entry), limits assumed)
# T1 construct: Protein in solution; also called Cyno KLB; cyKLB
# T1 chain: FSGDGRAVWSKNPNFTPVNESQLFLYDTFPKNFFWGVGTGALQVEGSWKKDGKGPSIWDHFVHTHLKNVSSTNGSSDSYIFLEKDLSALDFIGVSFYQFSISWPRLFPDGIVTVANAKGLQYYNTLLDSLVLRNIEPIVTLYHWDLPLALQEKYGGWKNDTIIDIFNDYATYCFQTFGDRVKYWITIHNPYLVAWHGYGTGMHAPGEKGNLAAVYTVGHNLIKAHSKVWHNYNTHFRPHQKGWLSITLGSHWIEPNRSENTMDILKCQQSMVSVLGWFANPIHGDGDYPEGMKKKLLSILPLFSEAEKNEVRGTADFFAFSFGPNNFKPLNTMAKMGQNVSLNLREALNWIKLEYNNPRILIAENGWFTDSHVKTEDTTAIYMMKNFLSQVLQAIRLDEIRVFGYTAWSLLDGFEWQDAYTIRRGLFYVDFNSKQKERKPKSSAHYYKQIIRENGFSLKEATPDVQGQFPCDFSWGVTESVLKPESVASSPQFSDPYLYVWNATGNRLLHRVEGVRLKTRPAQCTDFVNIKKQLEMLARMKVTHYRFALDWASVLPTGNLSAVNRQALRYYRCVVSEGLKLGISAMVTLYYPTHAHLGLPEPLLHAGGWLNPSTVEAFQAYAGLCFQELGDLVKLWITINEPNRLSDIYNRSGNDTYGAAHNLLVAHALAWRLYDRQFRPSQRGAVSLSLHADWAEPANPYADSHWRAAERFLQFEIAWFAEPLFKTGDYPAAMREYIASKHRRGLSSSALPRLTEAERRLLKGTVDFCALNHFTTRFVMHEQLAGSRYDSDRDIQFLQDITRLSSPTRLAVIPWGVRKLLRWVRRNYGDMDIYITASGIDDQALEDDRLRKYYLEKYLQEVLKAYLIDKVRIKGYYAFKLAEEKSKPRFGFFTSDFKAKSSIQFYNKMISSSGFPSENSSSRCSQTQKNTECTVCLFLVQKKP
# assay.info: Biacore SPR, antibody captured on anti-mouse Fc, KLB as analyte (1.56-25 nM), 25 C
Please give a number only; it is taken to be in nM.

antibody 1D19 (antibody, V domains shown, Murine monoclonal antibody) VH: QVQPQESGPELVKPGALVKISCKASGYTFTRYDINWMKQRPGQGLEWIGWIYPGDSSTKFNENFKDKATLTADKSSSTAYMQLSSLTSENSTVYFCARSDYYGSRSFTYWGQGTLVTVSA VL: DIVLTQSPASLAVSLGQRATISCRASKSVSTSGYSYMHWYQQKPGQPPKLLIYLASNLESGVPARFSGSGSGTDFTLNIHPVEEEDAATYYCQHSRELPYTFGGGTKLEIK ... 2.9

Documented Kd of antibody 3N20 (antibody, V domains shown, Murine monoclonal antibody) VH: QVQLQESGAELARPGASVKLSCKVSGYIFTNYGISWVKQRTGQGLEWIGEIYPRSGNTYYNEKFKGKATLTADMSSSTAYMDLRSLTSEDSAVYFCARHWDGVLDYFDYWGQGTSLTVSS VL: DIVMTQSPSSLSVSAGEKVTMSCKSSQSLLNSGNQKNYLAWYQQKPGQPPKLLIYGASTRESGVPDRFTGSGSGTDFTLTISSVQAEDLAVYYCLNDHSYPFTFGAGTKLELK : 3.52

Documented Kd of antibody 5H23 (antibody, V domains shown, Murine monoclonal antibody from hybridoma; also called 5H23-Alexa647 (labelled form)) VH: QVQLQQSGPELVKPGALVKISCKASGYTFTSYDINWVKQRPGQGLEWIGWIYPGDGSTKYNEKFKGKATLTADKSSRTAYMQLSSLTSENSAVYFCARSDYYGSRSFAYWGQGTLVTVSA VL: DIVLTQSPASLAVSLGQRATISCRASKSVSTSGYVYMHWNQQKPGQPPKLLIYLASYLESGVPARFSGSGSGTDFTLNIHPVEEEDAAIYYCQHSRDLTFPFGGGTKLEIK : 0.72

Documented Kd of antibody 5C23 (antibody, V domains shown, Murine monoclonal antibody) VH: QVQPQESGPELVKPGALVKISCKASGYTFTRYDINWVKKRPGQGLEWIGWIYPGDGSTKYNEKFEGKATLTADKSSSTAYMQLSSLTSENSAVYFCARSDYYGSRSFVYWGQGTLVTVSA VL: DIVLTQSPDSLTVSLGQRATISCRASKSVSTSGYSYMHWYQQKPGQPPKLLIYLASNLESGVPARFSGSGSGTDFTLNIHPVEEEDAATYYCQHSRELPYTFGGGTKLEIK : 2.4

Documented Kd of antibody 1C17 (antibody, V domains shown, Murine monoclonal antibody) VH: QVQLQESGPGLVKPSQSLSLTCSVTGYSITSGYYWNWIRQFPGNKLEWMGYINYDGNSNYTPSLKNRISITRDTSKNQFFLKLNSVTPEDTATYYCARKGAYYSNYDSFDVWGTGTTVTVSS VL: DIKMTQSPSSMYASLGERVTITCKASQDINSYLSWVQQKPGKSPKTLIYRANRLVDGVPSRFSGSGSGQDYSLTISSLEYEDMGIYYCLQYDEFPFTFGSGTKLEIK : 3.1

Documented Kd of antibody 4P5 (antibody, V domains shown, Murine monoclonal antibody) VH: QVQLQQSGPELVKPGALVKISCKASGYTFTRYDINWVKKRPGQGLEWIGWIYPGDDSTKYNEKFKGKATLTADKSSSTAYMQLSSLTSENSAVYFCARSDYYGSRSFVYWGQGTLVTVSA VL: DILLTQSPASLAVSLGQRATISCRASKSVSTSGYSYMHWYQQKPGQPPKLLIYLASNLESGVPARFSGRGSGTDFTLNIHPVEEEDAATYYCHHSGELPYTFGGGTKLEIK : 0.44
